Each record here notes measured Neutralization IC50, H9-HK97.
subject-of-test: HA of ca A/chicken/Hong Kong/G9/97 (H9N2) (influenza A virus)
test-details: cell-based or functional assay

{"binder": "Antibody 13 (antibody, V domains shown) VH: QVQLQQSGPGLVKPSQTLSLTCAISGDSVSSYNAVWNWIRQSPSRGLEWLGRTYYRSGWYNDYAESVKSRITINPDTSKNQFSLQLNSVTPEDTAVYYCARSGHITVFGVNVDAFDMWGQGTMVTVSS VL: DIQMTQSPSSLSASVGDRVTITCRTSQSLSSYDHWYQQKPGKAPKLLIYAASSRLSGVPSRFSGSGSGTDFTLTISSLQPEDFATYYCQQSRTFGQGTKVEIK", "unit-of-measurement": "mg/L", "Neutralization IC50, H9-HK97": 0.29}
{"binder": "Antibody 14 (antibody, V domains shown) VH: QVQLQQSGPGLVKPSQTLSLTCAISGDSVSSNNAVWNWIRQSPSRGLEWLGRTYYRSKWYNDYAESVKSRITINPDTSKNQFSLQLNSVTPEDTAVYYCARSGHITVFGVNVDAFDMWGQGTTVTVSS VL: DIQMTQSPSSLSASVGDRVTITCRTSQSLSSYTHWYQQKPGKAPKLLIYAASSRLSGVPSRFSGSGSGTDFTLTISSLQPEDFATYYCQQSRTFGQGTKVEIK", "unit-of-measurement": "mg/L", "Neutralization IC50, H9-HK97": 0.44}
{"binder": "Antibody 12 (antibody, V domains shown) VH: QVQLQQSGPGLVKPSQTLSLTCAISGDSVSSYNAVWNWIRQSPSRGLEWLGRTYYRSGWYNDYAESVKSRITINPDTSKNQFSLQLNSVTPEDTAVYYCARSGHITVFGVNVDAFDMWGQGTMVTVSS VL: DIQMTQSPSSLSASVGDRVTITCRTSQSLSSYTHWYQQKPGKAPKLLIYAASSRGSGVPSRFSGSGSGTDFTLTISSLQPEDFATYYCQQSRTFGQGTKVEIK", "unit-of-measurement": "mg/L", "Neutralization IC50, H9-HK97": 0.31}
{"binder": "Antibody 3 (antibody, V domains shown) VH: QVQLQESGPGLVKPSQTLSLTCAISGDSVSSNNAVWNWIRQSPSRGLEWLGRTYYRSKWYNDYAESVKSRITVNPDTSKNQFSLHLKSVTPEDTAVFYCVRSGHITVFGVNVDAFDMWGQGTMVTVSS VL: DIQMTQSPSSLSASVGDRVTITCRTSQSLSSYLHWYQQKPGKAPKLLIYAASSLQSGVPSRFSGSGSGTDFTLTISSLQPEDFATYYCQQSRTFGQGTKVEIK", "unit-of-measurement": "mg/L", "Neutralization IC50, H9-HK97": 1.18}
{"binder": "Antibody 15 (antibody, V domains shown) VH: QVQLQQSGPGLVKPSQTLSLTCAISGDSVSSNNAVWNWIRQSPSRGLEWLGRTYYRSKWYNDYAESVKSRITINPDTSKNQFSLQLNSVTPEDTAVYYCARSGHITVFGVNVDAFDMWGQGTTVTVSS VL: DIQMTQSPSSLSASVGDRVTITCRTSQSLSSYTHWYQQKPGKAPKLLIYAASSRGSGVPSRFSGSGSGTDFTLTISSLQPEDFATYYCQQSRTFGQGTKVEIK", "unit-of-measurement": "mg/L", "Neutralization IC50, H9-HK97": 0.35}
{"binder": "Antibody 11 (antibody, V domains shown) VH: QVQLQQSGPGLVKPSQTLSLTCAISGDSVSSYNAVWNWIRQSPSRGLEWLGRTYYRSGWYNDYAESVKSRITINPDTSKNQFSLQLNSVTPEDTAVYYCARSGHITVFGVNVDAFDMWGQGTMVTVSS VL: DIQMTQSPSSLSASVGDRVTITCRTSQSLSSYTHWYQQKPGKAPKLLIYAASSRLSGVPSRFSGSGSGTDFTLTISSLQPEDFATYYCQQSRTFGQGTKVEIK", "unit-of-measurement": "mg/L", "Neutralization IC50, H9-HK97": 0.36}
